In this section we review reported Phenoscore values for a set of compounds.
# System: zebrafish
# Assay type: in vivo
# condition.info: zebrafish, in vivo

| compound | Phenoscore |
| --- | --- |
| Cc1cccc(C#Cc2ccccc2)n1 [MPEP] | 0.73 |
| CCOC(=O)c1cc2c(cn1)[nH]c1ccccc12 [β-CCE] | 0.37 |
| CC1(C)CC(=O)c2c(SCCO)sc(-c3nccs3)c2C1 [TB 21007] | 0.12 |
| CC(N)Cc1c[nH]c2ccc(O)cc12 (stereo not drawn) [alpha-METHYLSEROTONIN] | 0.18 |
| CCc1c(C(=O)OC)ncc2[nH]c3cc(OC)c(OC)cc3c12 [DMCM] | 0.54 |
| CN1CCc2cc3c(cc2[C@H]1[C@@H]1OC(=O)c2c1ccc1c2OCO1)OCO3 [bicuculline (+)] | 0.23 |
| O=C([O-])[C@H]1CCCC[C@H]1C(=O)Nc1cc(Cl)cc(Cl)c1.[Na+] [VU 0155041 Na Salt] | 0.11 |
| NCCc1c[nH]c2c(O)cc(O)cc12 [57-DIHYDROXYTRYPTAMINE] | 0.05 |
| CCOC(=O)c1c(C)n(Cc2ccco2)c2ccc(OC)cc12 [compound 5943451] | 0.37 |
| CNc1cc(NS(=O)(=O)c2ccc(N)cc2)nc(NC)n1 [Ro 04-6790] | 0.11 |
| O=C(N/N=C/c1ccccc1O)c1ccccc1O [SCS] | 0.04 |
| CCN(CC)CCOC(=O)c1cc(Cl)c(N)cc1OC [SDZ-205557] | 0.07 |
| NC[C@H](CC(=O)O)c1ccc(Cl)cc1 [R-Baclofen] | 0.26 |
| NC(CCP(=O)(O)O)C(=O)O [L-AP4] | 0.1 |
| Cc1[nH]c2ccc(Cl)cc2c1C1=CCNCC1.Cl [EMD 386088 HYDROCHLORIDE] | 0.15 |
| NCCCC(=O)O [GABA] | 0.21 |
| CN1CCc2cc3c(cc2[C@H]1[C@@H]1OC(=O)c2c1ccc1c2OCO1)OCO3 [bicuculline (-)] | 0.05 |
| N[C@@H](Cn1ccc(=O)n(Cc2ccccc2C(=O)O)c1=O)C(=O)O [UBP 302] | 0.17 |
| COc1ccc2[nH]c(-c3ccccc3)c(CCN(C)C)c2c1 [BGC 20-761] | 0.74 |
| Br.COc1ccc(-c2ccc(=N)n(CCCC(=O)O)n2)cc1 [SR-95531] | 0.21 |
| CCCN(CCC)C1CCc2cccc(O)c2C1 (stereo not drawn) [8-HYDROXY-DPAT] | 0.49 |

###

In this section we review reported Phenoscore values for a set of compounds.
# Tested on: zebrafish
# Format: in vivo
# condition.info: zebrafish, in vivo

| compound | Phenoscore |
| --- | --- |
| COc1ccc(S(=O)(=O)Nc2cc(Cl)cc(Cl)c2OC)cc1N1CCNCC1.Cl [SB 399885 hydrochloride] | 0.16 |
| CCOC(=O)c1ncn2c1[C@@H]1CCCN1C(=O)c1cc(OC)ccc1-2 | 0.51 |
| CN(C)CCn1cc(S(=O)(=O)c2cccc(F)c2)c2cccnc21 | 0.21 |
| Cc1[nH]c2ccc(Cl)cc2c1CCN(C)C.O=C(O)C(=O)O [ST 1936 OXALATE] | 0.09 |
| Cc1c(OCc2cccc(-c3ccc(C(=O)O)cc3)c2)cc2c(c1C)C(=O)C(C1CCCC1)C2 (stereo not shown) | 0.11 |
| Cc1nccn1CC1CCc2c(c3ccccc3n2C)C1=O.Cl (stereo not shown) [Ondansetron Hydrochloride] | 0.13 |
| O=C(Nc1ccc(Cl)c(Cl)c1)c1ccc(Cl)cc1Cl | 0.42 |
| CN1CC(=O)NC1=NC(=O)Nc1cccc(Cl)c1 | 0.3 |
| CC(N)Cc1c[nH]c2ccc(OCc3cccs3)cc12 (stereo not shown) | 0.1 |
| O=C(O)/C=C\C(=O)O.c1ccc2nc(N3CCNCC3)ccc2c1 [Quipazine maleate salt] | 0.16 |
| COc1cc(Br)c(OC)c2c1[C@H](CN)C2 | 0.1 |
| COc1ccccc1N1CCN(C(=O)c2ccc(C(=O)c3c(C)cc(C)cc3C)cc2)CC1 | 0.48 |
| CN(C)C/C=C(\c1ccc(Br)cc1)c1cccnc1.Cl.Cl.O [Zimelidine dihydrochloride monohydrate] | 0.16 |
| COc1cc(CC(C)N)c(OC)cc1I.Cl (stereo not shown) [DOI HYDROCHLORIDE] | 0.1 |
| CN(C)CCCc1cc(C(=O)Nc2ccc(-c3ccncc3)cc2)ccc1O.Cl.Cl [GR 55562 DIHYDROCHLORIDE] | 0.24 |
| COc1ccc2c(c1)c(CCN(C)C)cn2S(=O)(=O)c1ccccc1.O=C(O)C(=O)O [MS 245 OXALATE] | 0.09 |
| NC/C=C/C(=O)O | 0.07 |
| COc1ccc(NC(=O)c2ccc(-c3ccc(-c4noc(C)n4)cc3C)cc2)cc1OCCN(C)C | 0.11 |
| CSc1ccc2c(c1)C(N1CCN(C)CC1)Cc1ccccc1S2 (stereo not shown) [METHIOTHEPIN] | 0.33 |
